System: SK-OV-3 ovarian
Experiment: NCI-60 one-dose screen, 48 h (100 = growth as untreated, 0 = no growth, -100 = all killed)
Settings: 10 µM
This is part of a sample that, as a whole, favours compounds with a hit. Of some 83,000 tested, about 20% had one in any assay.
observed-property: growth (%)
Reply numerically in %, unit not repeated.

Solved entries (count: 3):
compound	result-units	growth
COc1cc(OC)c(S(=O)(=O)N(CCCl)CCCl)cc1C(=O)/C=C/c1ccc(C)cc1	%	74.5
COP(=O)(CC(F)(F)C(F)(F)F)OC	%	118
CCOP(=O)(OCC)C(NC(C)=O)C(=O)SCCN (centres undefined)	%	117

Now consider the entry below.
Q: Need growth, item `O=C(/C=C/c1ccco1)c1nc2ccccc2n1Cc1ccc(Br)cc1`
Ans: 103
